system: U2OS; test: Multiplex assay against U2OS; assay type: toxicity, cell-based; settings: human, 24 h, 10 µM, compound concentration 10 uM, replicate 1
Threshold 70%: Population Apoptotic (%) strictly smaller gives 1.0, otherwise 0.0.

Before answering, review these 6 worked examples.
1) O=C(O)c1cc2ccccc2c(Cc2c(O)c(C(=O)O)cc3ccccc23)c1O = 0.0
2) O=C1COc2nccc(-c3ccccc3F)c2CN1Cc1cc(C(F)(F)F)cc(C(F)(F)F)c1 = 1.0
3) CC[C@H]1OC(=O)[C@H](C)[C@@H](O[C@H]2C[C@@](C)(OC)[C@@H](O)[C@H](C)O2)[C@H](C)[C@@H](O[C@@H]2O[C@H](C)C[C@H](N(C)C)[C@H]2O)[C@@]2(C)CC(C)=C(O2)[C@H](C)[C@@H](O)[C@]1(C)O = 1.0
4) C[C@H]1[C@H]2CC[C@H]3[C@@H]4CC=C5C[C@@H](N(C)C)CC[C@]5(C)[C@H]4CC[C@]23CN1C = 1.0
5) CC1(COc2ccc3c(c2)ncn3-c2ccc3cccc(N4CCC(N)CC4)c3n2)COC1 = 0.0
6) COc1cc(C(=O)N(CCCc2ccccc2)Cc2ccc(CC(=O)O)cc2)cc(OC)c1C = 0.0

Please examine the following record next.
Problem: For the compound CN1CCN(c2nc3cc(C(F)(F)F)ccc3n3cccc23)CC1.O=C(O)/C=C\C(=O)O.O=C(O)/C=C\C(=O)O , is Population Apoptotic (%) under 70%?
0.0

* * *

tested on: Fibroblast; test: Multiplex assay against human fibroblast; format: toxicity, cell-based; settings: 24 h, 1 µM, compound concentration 1 uM, replicate 1
Recorded measurements of Population Membrane Permeable-Phenotype (%), one per entry
Kindly report the value followed by its unit.

1. N[C@@]1(C(=O)O)CO[C@H]2[C@H](C(=O)O)[C@H]21 = 0%
2. CCNC1(C(N)=O)CCN(c2ncnc3c2nc(-c2ccccc2Cl)n3-c2ccc(Cl)cc2)CC1 = 0%
3. COc1ccc2c(c1)C(C(=O)N(Cc1ccc(N(C)C)cc1)c1ccc(C(C)C)cc1)CCC2.Cl (stereo not drawn) = 0%
4. O=C(NCCO)c1cccc(-c2cc(Nc3ccc(OC(F)(F)F)cc3)ncn2)c1 = 2%
5. CN1CCN2c3ncccc3Cc3ccccc3C2C1 (stereo not drawn) = 0%
6. CCOc1c2c(c(OCC)c3ncccc13)CN(c1ccc(CS(=O)(=O)NC(=O)Cc3ccccc3OC)cc1C)C2=O = 2%
7. CSc1ccccc1N1CCN(CCCCCC(=O)NC2CCCc3ccccc32)CC1.Cl (stereo not drawn) = 0%
8. CN1CCN(c2nc3cc(C(F)(F)F)ccc3n3cccc23)CC1.O=C(O)/C=C\C(=O)O.O=C(O)/C=C\C(=O)O = 0%
9. COc1cc(C(=O)N(CCCc2ccccc2)Cc2ccc(CC(=O)O)cc2)cc(OC)c1C = 0%
10. O=C1COc2nccc(-c3ccccc3F)c2CN1Cc1cc(C(F)(F)F)cc(C(F)(F)F)c1 = 0%

Please examine the following record next.
# lookup: Cc1ccc(/C(=C\CN2CCCC2)c2ccccn2)cc1 on Fibroblast, Population Membrane Permeable-Phenotype (%) = 1%

* * *

system: Fibroblast; test: Multiplex assay against human fibroblast; type: toxicity, cell-based; settings: 12 h, 10 µM, compound concentration 10 uM, replicate 1
Catalogue of compounds with associated Population Mitotic Cells (%)
State just the number; it will be interpreted in %.

1) COc1cc(C(=O)N(CCCc2ccccc2)Cc2ccc(CC(=O)O)cc2)cc(OC)c1C = 58

Population Mitotic Cells (%) reported for this compound CCCC(CCC)C(=O)O [VALPROIC ACID] : 70

Reported Population Mitotic Cells (%) of c1cc(OCCCN2CCCCC2)ccc1CN1CCCCC1 [JNJ-5207852] : 50

The recorded Population Mitotic Cells (%) for COc1cc(NC(=O)CCN2CCC(OC(=O)Nc3ccccc3-c3ccccc3)CC2)c(Cl)cc1CNC[C@H](O)c1ccc(O)c2[nH]c(=O)ccc12 [BATEFENTEROL] is 53

Population Mitotic Cells (%) reading for CSc1ccccc1N1CCN(CCCCCC(=O)NC2CCCc3ccccc32)CC1.Cl (stereo not given) : 41
